- measured.target: active p38 alpha enzyme (Upstate Biotechnology) (Homo sapiens, UniProt Q16539)
- Construct: purchased Upstate Biotechnology
- Sequence (Q16539 whole entry): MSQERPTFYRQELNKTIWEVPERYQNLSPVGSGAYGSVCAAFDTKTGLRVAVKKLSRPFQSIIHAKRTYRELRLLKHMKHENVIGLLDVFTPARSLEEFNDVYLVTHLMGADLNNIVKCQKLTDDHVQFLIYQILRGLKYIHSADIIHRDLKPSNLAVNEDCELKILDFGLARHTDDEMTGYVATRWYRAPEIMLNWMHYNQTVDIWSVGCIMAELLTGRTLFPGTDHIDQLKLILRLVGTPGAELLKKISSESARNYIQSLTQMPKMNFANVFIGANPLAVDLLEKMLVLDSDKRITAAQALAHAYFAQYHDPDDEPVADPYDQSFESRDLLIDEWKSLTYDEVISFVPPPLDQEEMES
- protocol.text: p38α biochemical assay (ATP turnover, luminescent detection, Cambrex PKlight)
- study.conditions: p38α kinase; Table 1 Biological Activity
// values below are reported IC50

Would you please look over these solved cases?
- CC(C)NC(=O)c1csc(-c2oc(CN[C@@H](C)c3ccccc3)nc2-c2ccc(F)cc2)n1: > 1000 nM
- CCCNCc1onc(-c2ccc(F)cc2)c1-c1nc(C(=O)NC(C)C)cs1: > 1000 nM
- Cc1cccc(N2CCN(Cc3onc(-c4ccc(F)cc4)c3-c3nc(C(=O)NC(C)C)cs3)CC2C)c1 (stereo not shown): > 1000 nM
- COc1ccc(OC)c(CCNCc2nc(-c3ccc(F)cc3)c(-c3nc(C(=O)NC(C)C)cs3)o2)c1: > 1000 nM
- Cc1ccccc1CCC(=O)N1CCC(c2[nH]nc(-c3ccc(F)cc3)c2-c2nc(C(=O)NC(C)C)cs2)CC1: > 1000 nM

Query string: Using the record for CC(C)NC(=O)c1csc(-c2c(-c3ccc(F)cc3)noc2CNCCc2ccc3c(c2)OCO3)n1 , report its IC50.
Result string: > 1000 nM

Query string: Another molecule: Cc1nc(-c2ccc(F)cc2)c(-c2nc(C(=O)Nc3c(C(C)C)cccc3C(C)C)cs2)s1
Result string: > 1000 nM

Query string: Another molecule: CC(C)NC(=O)c1csc(-c2oc(CNCc3cccnc3)nc2-c2ccc(F)cc2)n1
Result string: > 1000 nM
